Target: T1, GPR10 (UniProt P49683 1-370, limits assumed)
T1 sequence (looked up): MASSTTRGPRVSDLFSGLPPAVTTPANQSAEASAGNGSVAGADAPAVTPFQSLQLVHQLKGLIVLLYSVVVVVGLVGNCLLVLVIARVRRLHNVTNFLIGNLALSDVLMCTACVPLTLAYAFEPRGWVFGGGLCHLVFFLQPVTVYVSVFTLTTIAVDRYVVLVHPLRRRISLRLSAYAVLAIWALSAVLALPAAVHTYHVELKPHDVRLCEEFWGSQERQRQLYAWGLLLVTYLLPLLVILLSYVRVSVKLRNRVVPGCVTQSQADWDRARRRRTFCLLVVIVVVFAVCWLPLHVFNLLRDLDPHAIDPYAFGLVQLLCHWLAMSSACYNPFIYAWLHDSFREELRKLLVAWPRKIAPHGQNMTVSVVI
Experiment: cell-based or functional assay
Bridges are numbered along the chain shown (N, C = ends). Where no end group is shown, it is not given here. L1 = not defined here; L3 = not defined here; L4 = not defined here; L5 = not defined here
GPR10 EC50 under 20 nM gets t, anything at or over 20 nM gets f.

binder="SRAHQHSMETRTPDICPAWYTGCGIRPVGRF-NH2 (linker 16-23 via L3; reading uncertain) [Conjugate 245]" discrete_label=f
binder="TPDINPACYTGRGICPVGRF-NH2 (cysteine pairing not given here) [SEQ ID NO 86]" discrete_label=f
binder="SRAHQHSMETRTPDICPAWYTGCGIRPVGRF-NH2 (linker 16-23 via L4; reading uncertain) [Conjugate 246]" discrete_label=f
binder="TPDCNPAWYTCRGIRPVGRF-NH2 (cysteine pairing not given here) [SEQ ID NO 105]" discrete_label=t
binder="SRAHQHSMCTRTPDICPAWYTGRGIRPVGRF-NH2 (linker 9-16 via L1; reading uncertain) [Conjugate 227]" discrete_label=f
binder="TPDINPCWYTGRGCRPVGRF-NH2 (linker 7-14 via L3; reading uncertain) [Conjugate 222]" discrete_label=t
binder="SRAHQHSMETRTPDICPAWYTGCGIRPVGRF-NH2 (cysteine pairing not given here) [SEQ ID NO 94]" discrete_label=f
binder="TPDICPAWYTGCGIRPVGRF-NH2 (linker 5-12 via L1; reading uncertain) [Conjugate 207]" discrete_label=t
binder="SRAHQHSMETRTPDINPAWCTGRGIRCVGRF-NH2 (cysteine pairing not given here) [SEQ ID NO 96]" discrete_label=f
binder="TPDCNPAWYTCRGIRPVGRF-NH2 (linker 4-11 via L5; reading uncertain) [Conjugate 218]" discrete_label=f

These entries and their values trace back to patent US20230071371A1.
